Molecular target: AmpKa1 (Homo sapiens)
Construct: purchased Carna Biosciences
Sequence (Q13131 whole entry): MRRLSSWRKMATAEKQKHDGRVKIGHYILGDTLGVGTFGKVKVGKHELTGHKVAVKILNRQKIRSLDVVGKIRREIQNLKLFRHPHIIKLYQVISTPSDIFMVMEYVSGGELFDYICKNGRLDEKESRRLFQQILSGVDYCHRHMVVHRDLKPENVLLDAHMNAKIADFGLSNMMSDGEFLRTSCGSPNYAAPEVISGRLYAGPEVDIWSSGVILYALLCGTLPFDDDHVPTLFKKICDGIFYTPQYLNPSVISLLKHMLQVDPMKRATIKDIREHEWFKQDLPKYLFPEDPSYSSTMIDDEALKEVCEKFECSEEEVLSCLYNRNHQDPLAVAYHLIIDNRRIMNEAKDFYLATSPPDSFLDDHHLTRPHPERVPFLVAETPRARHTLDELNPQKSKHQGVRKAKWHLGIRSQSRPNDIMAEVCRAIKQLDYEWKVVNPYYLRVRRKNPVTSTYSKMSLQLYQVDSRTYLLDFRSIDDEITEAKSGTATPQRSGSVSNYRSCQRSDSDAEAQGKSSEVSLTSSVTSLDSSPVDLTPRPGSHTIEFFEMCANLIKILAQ
Sequence (Q9Y478 whole entry partner): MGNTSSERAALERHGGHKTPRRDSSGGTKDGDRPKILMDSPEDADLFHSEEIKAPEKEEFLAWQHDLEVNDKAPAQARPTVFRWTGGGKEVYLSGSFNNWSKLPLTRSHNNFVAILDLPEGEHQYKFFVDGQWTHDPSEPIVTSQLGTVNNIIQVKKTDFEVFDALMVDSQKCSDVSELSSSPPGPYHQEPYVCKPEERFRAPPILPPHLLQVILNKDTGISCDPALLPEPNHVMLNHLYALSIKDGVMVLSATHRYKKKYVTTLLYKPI
Sequence (P54619 whole entry partner): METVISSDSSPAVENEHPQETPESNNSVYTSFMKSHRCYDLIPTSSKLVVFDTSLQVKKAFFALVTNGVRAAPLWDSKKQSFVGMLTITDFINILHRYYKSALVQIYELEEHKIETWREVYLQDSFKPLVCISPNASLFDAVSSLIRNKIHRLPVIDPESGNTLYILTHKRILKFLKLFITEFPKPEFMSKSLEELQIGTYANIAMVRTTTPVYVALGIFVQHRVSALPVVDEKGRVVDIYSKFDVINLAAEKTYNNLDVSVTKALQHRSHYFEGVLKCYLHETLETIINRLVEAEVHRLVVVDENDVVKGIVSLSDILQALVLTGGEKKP
Assay: LabChip (Caliper) kinase assay, AmpKa1
Type: biochemical
Conditions: compound at 100 nM, read-out: remaining kinase activity (in %) / percentage of inhibition
Method: The analysis of kinase activity described here was performed using LabChip (Caliper Life Sciences), specifically the Caliper LC3000 and the EZ Reader II instruments. The kinase assay used measures the conversion of a fluorescent peptide (substrate) to a phosphorylated product. The reaction mixture, in a microplate well, is introduced by a capillary in a chip where the non-phosphorylated substrate and the phosphorylated product are separated by fluorescence induced by laser. […]
inhibition at 0.1 µM strictly under 9% means y; at 9% or over means n.

{"compound": "C[C@@H]1O[C@@H](n2c3ccccc3c3c4c(c5c6ccccc6[nH]c5c32)CNC4=O)C[C@@H](O)[C@H]1O [formula (XIV), N^13-1′-β-L-digitoxosyl-k252c]", "group": "y"}
{"compound": "C[C@@H]1O[C@@H](n2c3ccccc3c3c4c(c5c6ccccc6[nH]c5c32)CNC4=O)C[C@H](O)[C@H]1O [formula (XIII), N^13-1′-β-L-olivosyl-k252c]", "group": "n"}
{"compound": "C[C@@H]1O[C@@H](n2c3ccccc3c3c4c(c5c6ccccc6[nH]c5c32)CNC4=O)[C@H](O)[C@H](O)[C@H]1O [formula (XII), N^13-1′-β-L-rhamnosyl-k252c]", "group": "y"}
{"compound": "C[C@@H]1O[C@@H](n2c3ccccc3c3c4c(c5c6ccccc6[nH]c5c32)C(=O)NC4=O)C[C@@H](O)[C@H]1O [formula (V), N^13-1′-β-L-digitoxosylarcyriaflavin]", "group": "n"}

###

As shown below, each of these molecules has a reported pIC50 value.
Target: FLT3 (Homo sapiens)
Construct: purchased Upstate
Sequence (P36888 27-993): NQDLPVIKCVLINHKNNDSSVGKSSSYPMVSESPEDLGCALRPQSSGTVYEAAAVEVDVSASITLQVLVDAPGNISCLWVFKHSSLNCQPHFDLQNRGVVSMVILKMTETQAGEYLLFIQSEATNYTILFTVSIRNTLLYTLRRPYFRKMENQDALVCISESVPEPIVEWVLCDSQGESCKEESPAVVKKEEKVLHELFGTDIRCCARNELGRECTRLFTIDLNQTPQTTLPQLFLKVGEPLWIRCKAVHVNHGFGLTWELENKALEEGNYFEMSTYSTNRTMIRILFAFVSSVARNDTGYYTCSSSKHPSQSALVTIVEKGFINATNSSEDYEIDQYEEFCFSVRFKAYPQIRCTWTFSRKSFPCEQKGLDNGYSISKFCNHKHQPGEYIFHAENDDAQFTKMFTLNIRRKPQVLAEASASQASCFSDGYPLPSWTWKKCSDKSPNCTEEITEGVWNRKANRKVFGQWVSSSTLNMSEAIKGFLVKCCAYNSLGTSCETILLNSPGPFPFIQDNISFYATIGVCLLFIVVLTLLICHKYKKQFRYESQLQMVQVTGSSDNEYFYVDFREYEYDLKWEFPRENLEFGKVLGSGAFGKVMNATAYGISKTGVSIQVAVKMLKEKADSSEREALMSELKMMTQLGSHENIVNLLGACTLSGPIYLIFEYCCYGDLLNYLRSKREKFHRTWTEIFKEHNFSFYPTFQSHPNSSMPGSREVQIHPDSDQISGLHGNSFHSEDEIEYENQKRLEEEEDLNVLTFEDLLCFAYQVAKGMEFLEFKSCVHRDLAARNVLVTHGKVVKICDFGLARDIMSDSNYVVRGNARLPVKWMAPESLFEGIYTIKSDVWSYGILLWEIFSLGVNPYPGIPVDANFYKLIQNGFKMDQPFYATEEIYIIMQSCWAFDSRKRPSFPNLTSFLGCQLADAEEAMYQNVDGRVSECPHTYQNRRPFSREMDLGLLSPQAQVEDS
Assay: LabChip (Caliper) kinase assay, FLT3
Format: biochemical
Conditions: Ftl3; ATP at Km; read-out: CI50 (the source's name)
pIC50: −log10 of the molar value.
outcome.measure: pIC50

{"molecule": "C[C@]12O[C@H](C[C@@H](O)[C@H]1O)n1c3ccccc3c3c4c(c5c6ccccc6n2c5c31)C(=O)NC4=O [formula (IX)]", "outcome.measure": "pIC50", "recorded.number": 9.37}
{"molecule": "C[C@]12O[C@H]([C@H](O)[C@H](O)[C@H]1O)n1c3ccccc3c3c4c(c5c6ccccc6n2c5c31)C(=O)NC4=O [formula (VII)]", "outcome.measure": "pIC50", "recorded.number": 9.24}
{"molecule": "C[C@]12O[C@H]([C@H](O)[C@H](O)[C@H]1O)n1c3ccccc3c3c4c(c5c6ccccc6n2c5c31)CNC4=O [formula (XVI), N^12-5′(S)-N^13-1′-(R)-L-rhamnosyl-k252c]", "outcome.measure": "pIC50", "recorded.number": 9.23}
{"molecule": "C[C@]12O[C@H](C[C@H](O)[C@H]1O)n1c3ccccc3c3c4c(c5c6ccccc6n2c5c31)CNC4=O [formula (XVII), N^12-5′(S)-N^13-1′-(R)-L-olivosyl-k252c]", "outcome.measure": "pIC50", "recorded.number": 9.27}
{"molecule": "C[C@]12O[C@H](C[C@H](O)[C@H]1O)n1c3ccccc3c3c4c(c5c6ccccc6n2c5c31)C(=O)NC4=O [formula (VIII)]", "outcome.measure": "pIC50", "recorded.number": 9.25}

Reference source for all entries: patent US8598132B2
